- METHOD_NOTES: Brain pharmacokinetics in mice
- Format: in vivo
- PROTOCOL_CONDITIONS: mouse; Brain, oral 25 mg/kg

{"SMILES_ENTRY": "COc1ccc(/C=C/c2cc(OC)cc(B(O)O)c2)cc1", "MRT last": "1.48 h"}
